- Tested on: ZR-75-1
- PROTOCOL_NOTES: viability inhibition at highest dose (% inhibition); higher = more growth inhibition
- EXPERIMENTAL_SETUP: 4-OH-tamoxifen in medium 0 µM; 72 h
Overview of reported viability inhibition at highest dose across a group of compounds:
Write no unit; give the number alone.

These recorded examples may help you get a feel for the data.
| COMPOUND | viability inhibition at highest dose |
| --- | --- |
| CC(=O)O[C@H]1C(=O)[C@@]2(C)[C@H]([C@H](OC(=O)c3ccccc3)[C@]3(O)C[C@H](OC(=O)[C@H](O)[C@@H](NC(=O)c4ccccc4)c4ccccc4)C(C)=C1C3(C)C)[C@]1(OC(C)=O)CO[C@@H]1C[C@@H]2O [Paclitaxel] (drug 1000 nM) | 26.9 |
| O=C(O)C1(C(=O)O)CCC1.[NH2-].[NH2-].[Pt+2] [Carboplatin] (drug 10000 nM) | -16.2 |
| C/C(=C\c1csc(C)n1)[C@@H]1C[C@@H]2O[C@]2(C)CCC[C@H](C)[C@H](O)[C@@H](C)C(=O)C(C)(C)[C@@H](O)CC(=O)O1 [Patupilone (Epothilone B)] (drug 1000 nM) | 8.28 |

QUERY: Any idea what viability inhibition at highest dose was measured for CO[C@@]12[C@H](COC(N)=O)C3=C(C(=O)C(C)=C(N)C3=O)N1C[C@@H]1N[C@@H]12 [Mitomycin C] (drug 10000 nM) ?
RESULT: 25.5

QUERY: Look up viability inhibition at highest dose for this compound: CCN(CC)CCCC(C)Nc1ccnc2cc(Cl)ccc12 (stereo not given) [Chloroquine] (drug 990000 nM)
RESULT: -2.67
